Recorded PBM binding z-score for the following sequences
Tested on: RXRa DBDmut IVT, anti-RXR (DBD mutation: RXRa K156A/R161A, NR concentration 90 nM)
protocol: PBM binding z-score (relative to random genomic background probes); higher = stronger binding; sequences stand for … in GC…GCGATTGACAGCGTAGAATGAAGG
Form rule: numeric answer, no unit written next to it.

chain	targetSystem	PBM binding z-score
CCTACTGGGCCATCCGGTCATTGATATCAACGTT	RXRa DBDmut IVT, anti-RXR (DBD mutation: RXRa K156A/R161A, NR concentration 90 nM)	-0.598
AGAATGAGGTTATACGCAGATCAGGGAAGAAAGT	RXRa DBDmut IVT, anti-RXR (DBD mutation: RXRa K156A/R161A, NR concentration 90 nM)	1.47
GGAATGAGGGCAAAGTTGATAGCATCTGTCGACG	RXRa DBDmut IVT, anti-RXR (DBD mutation: RXRa K156A/R161A, NR concentration 90 nM)	2.73

Ask | What PBM binding z-score value was documented for this sequence, ATCGCTAGGTAAAGTTCAGTGAAAGATCGATAGA ?
Reply | 0.79

Ask | What PBM binding z-score value was documented for this sequence, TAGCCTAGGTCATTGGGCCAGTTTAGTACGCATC ?
Reply | 1.46

Ask | What PBM binding z-score value was documented for this sequence, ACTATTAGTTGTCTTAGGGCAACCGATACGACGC ?
Reply | 0.518

###

System: RARa homodimer (NR concentration 270 nM)
protocol: PBM binding z-score (relative to random genomic background probes); higher = stronger binding; sequences stand for … in GC…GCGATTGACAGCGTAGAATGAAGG
measurementType: PBM binding z-score
Form rule: numeric answer, no unit written next to it.

Study these solved cases before continuing.
chain	targetSystem	PBM binding z-score
ATCTCTAGGTAACGAAGTTCAGTGAATGCCGAAC	RARa homodimer (NR concentration 270 nM)	0.64
TCAGACAGGTGAAGGTAACTCAGGTACGCAGTCG	RARa homodimer (NR concentration 270 nM)	0.775
CCTTACGGGTCACTGACAGGATATAGCATTTGGA	RARa homodimer (NR concentration 270 nM)	1.33
AGAACGAGGGCAATGATTTGATAGCACGGGTGGC	RARa homodimer (NR concentration 270 nM)	0.605
ATCGAAAGTTCGACGAGGTGAGTATACACCGTTT	RARa homodimer (NR concentration 270 nM)	-0.0858

Ask | RARa homodimer (NR concentration 270 nM) / PBM binding z-score / TTACCATGGTGAAAGGTCGTTGATGCACGCCTTG : value?
Reply | -0.159

Ask | RARa homodimer (NR concentration 270 nM) / PBM binding z-score / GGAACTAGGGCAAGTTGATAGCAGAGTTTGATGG : value?
Reply | -0.11

Ask | RARa homodimer (NR concentration 270 nM) / PBM binding z-score / CTCGAAAGGTCGGTTGAGGTGAGTATGCGGATAA : value?
Reply | 0.202

Ask | RARa homodimer (NR concentration 270 nM) / PBM binding z-score / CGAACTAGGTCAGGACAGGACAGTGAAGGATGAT : value?
Reply | -0.133

Ask | RARa homodimer (NR concentration 270 nM) / PBM binding z-score / ATCGAAAGGTCGAGGTGAGTATTGAGAAAGGGAA : value?
Reply | 0.977

Ask | RARa homodimer (NR concentration 270 nM) / PBM binding z-score / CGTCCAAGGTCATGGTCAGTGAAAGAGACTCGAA : value?
Reply | 1.11

Ask | RARa homodimer (NR concentration 270 nM) / PBM binding z-score / ACATGTAGGTTAAGGGTCATTCAGGTTGGTTCGC : value?
Reply | 2.44

Ask | RARa homodimer (NR concentration 270 nM) / PBM binding z-score / ACTAGTTGGTTAGCTGAGGTCACACACAATTCGG : value?
Reply | 1.66

Ask | RARa homodimer (NR concentration 270 nM) / PBM binding z-score / TTACCAAGGTGAGCTGAGGTCGTTGTTCCAACTC : value?
Reply | -0.978

Ask | RARa homodimer (NR concentration 270 nM) / PBM binding z-score / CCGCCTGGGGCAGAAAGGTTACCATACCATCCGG : value?
Reply | -0.241

Ask | RARa homodimer (NR concentration 270 nM) / PBM binding z-score / ATCTCTGGGTAACCAAGTTCAGTGAATGCCGAAC : value?
Reply | -0.0126

Ask | RARa homodimer (NR concentration 270 nM) / PBM binding z-score / CATACAGGGTGAGCTAGGCCAGAGTAGGGACGGC : value?
Reply | -0.0733

Ask | RARa homodimer (NR concentration 270 nM) / PBM binding z-score / ACAGACACGTGATGAAGGTAACTCAGGCTATCAT : value?
Reply | 0.63

###

Recorded PBM binding z-score for the following sequences
Test system: LXRa:RXRa (NR concentration 270 nM, RXRa partner concentration 90 nM)
protocol: PBM binding z-score (relative to random genomic background probes); higher = stronger binding; sequences stand for … in GC…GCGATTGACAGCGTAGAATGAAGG

Study these solved cases before continuing.
chain	targetSystem	PBM binding z-score
TCATATAGGTAATACAGGTGACAGTCGGCATCTA	LXRa:RXRa (NR concentration 270 nM, RXRa partner concentration 90 nM)	1.27
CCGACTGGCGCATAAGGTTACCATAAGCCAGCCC	LXRa:RXRa (NR concentration 270 nM, RXRa partner concentration 90 nM)	1.91
ATACCAAGATGATCGTGAGGTCGTTGATACTAAC	LXRa:RXRa (NR concentration 270 nM, RXRa partner concentration 90 nM)	0.576
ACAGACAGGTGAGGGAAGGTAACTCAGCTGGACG	LXRa:RXRa (NR concentration 270 nM, RXRa partner concentration 90 nM)	0.155
CGTCCAAGGTCAGCATGTCAGTGAAAGCGACGTG	LXRa:RXRa (NR concentration 270 nM, RXRa partner concentration 90 nM)	3.16
CCTCGGAGGGCAGAAGGTCAGAGCTGTCCGCTTT	LXRa:RXRa (NR concentration 270 nM, RXRa partner concentration 90 nM)	1.92

Ask | What PBM binding z-score value was documented for this sequence, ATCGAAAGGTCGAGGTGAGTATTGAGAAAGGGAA ?
Reply | 3.39

Ask | What PBM binding z-score value was documented for this sequence, CTCGAAAGGTCGGTTGAGTTGAGTATACGGATAA ?
Reply | 1.48

Ask | What PBM binding z-score value was documented for this sequence, ATCTCTAGGTAAGACGCAGTTCAGTGAAGAACGC ?
Reply | 0.0302

Ask | What PBM binding z-score value was documented for this sequence, TTACCAAGCTGAAAGGTCGTTGATGCACGCCTTG ?
Reply | 0.94

Ask | What PBM binding z-score value was documented for this sequence, TGAATGAGGTTACAAGATCAGGGAACGTTGCAAA ?
Reply | 1.28

Ask | What PBM binding z-score value was documented for this sequence, TCTAGTTGGTCAAAGATCACACACTCGAAATGCG ?
Reply | 0.894

Ask | What PBM binding z-score value was documented for this sequence, TCTTGTAGATCAATAGGGGTTAAGAAAGTGCGCT ?
Reply | 4.13

Ask | What PBM binding z-score value was documented for this sequence, CAAACTAGGTCAAGGTTAAAGTCGGTTTGTGCCA ?
Reply | 3.75

Ask | What PBM binding z-score value was documented for this sequence, CCGACTGGGGCAAAGGTTACCCTACTCAGTACGA ?
Reply | 1.36

###

Tested on: RXRa homodimer (NR concentration 180 nM)
protocol: PBM binding z-score (relative to random genomic background probes); higher = stronger binding; sequences stand for … in GC…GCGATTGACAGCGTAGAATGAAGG
Each entry gets NO if its PBM binding z-score stays under 1, and YES if its PBM binding z-score is 1 or above.

Known results for sequences:
chain	classAssignment
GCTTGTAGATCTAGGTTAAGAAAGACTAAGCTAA	NO
AGAATGAGGCTATACGTAGATCAGGGAAGAAAGT	NO
TCATATAGGTAAAAAGTGAAAGTCGGTGTGGTAA	NO
GCCGACAGGTGAAACGCAGGTAACTCAGGGTGGC	NO
CCTATTAGTTGACCATAAGTGCAACCGAAGCTCG	NO

Ask | Reported PBM binding z-score reaches at least 1 for ATGTGTAGGTTAAGGGTCATTCAGGTTGGTTCGC ?
Reply | YES

Ask | Reported PBM binding z-score reaches at least 1 for GCTATTAGTTTAAAGGGCAACCGAATGATTCTCG ?
Reply | YES

Ask | Reported PBM binding z-score reaches at least 1 for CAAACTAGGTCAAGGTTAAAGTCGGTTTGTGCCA ?
Reply | YES

Ask | Reported PBM binding z-score reaches at least 1 for ACTCAGAGGACAAAGGTCAGAGCTACGCCAGTGA ?
Reply | YES

Ask | Reported PBM binding z-score reaches at least 1 for CGTCCAAGGTCAAAGGTCCGTGAAGAGATGACGG ?
Reply | YES

Ask | Reported PBM binding z-score reaches at least 1 for CCTGCTAGGTCAATGGTCAGCTTAAGCAGCTCGC ?
Reply | YES

Ask | Reported PBM binding z-score reaches at least 1 for TCATATAGGTAAATGCTAGGTGAAAGTACGATCT ?
Reply | YES

Ask | Reported PBM binding z-score reaches at least 1 for ATATGTAGGTTAGATGGGGTCATTCAGACTAGGC ?
Reply | YES

Ask | Reported PBM binding z-score reaches at least 1 for GATACAGGGTCAAGGCCAAAGTACGCGTATTGAT ?
Reply | YES

Ask | Reported PBM binding z-score reaches at least 1 for CCAACTGGGGCAAAGGTTACCATACTCAGTACGA ?
Reply | YES

Ask | Reported PBM binding z-score reaches at least 1 for CCGAGTAGGTTATGGGGCCTTCAGGCAACGGTGA ?
Reply | NO

Ask | Reported PBM binding z-score reaches at least 1 for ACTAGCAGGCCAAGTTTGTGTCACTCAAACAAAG ?
Reply | NO

Ask | Reported PBM binding z-score reaches at least 1 for ATATGTAGGTTAGTTGGGGTCATTCAGACTAGGC ?
Reply | YES

Ask | Reported PBM binding z-score reaches at least 1 for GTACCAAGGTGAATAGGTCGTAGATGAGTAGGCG ?
Reply | YES

Ask | Reported PBM binding z-score reaches at least 1 for GATACTGGGTCAAGGCCAGAGTACGCGTATTGAT ?
Reply | YES
